Values compiled from ChEMBL document CHEMBL4177761.

experiment: Volume of distribution at steady state during terminal phase in mouse at 3 mg/kg, iv by LC-MS method; assay type: ADME, organism-based; details: in vivo, read-out: Vbeta
observable: Vd (L/kg)
Please reply with the bare figure in L/kg and do not write the unit itself.

Input line: # return recorded Vd for entry COC(=O)N[C@H](C(=O)N1CCC[C@H]1C(=O)Nc1ccc([C@@H]2CC[C@@H](c3ccc(NC(=O)[C@@H]4CCCN4C(=O)[C@@H](NC(=O)OC)C(C)C)cc3)N2c2ccc(C(C)(C)C)cc2)cc1)C(C)C
Output line: 1.8

====

test: Half life in monkey at 1 mg/kg, iv by LC-MS method; assay type: ADME, organism-based, Macaca mulatta; settings: rhesus monkey, in vivo
observable: half-life (h)
Please reply with the bare figure in h and do not write the unit itself.

Input line: # return recorded half-life for entry COC(=O)N[C@H](C(=O)N1CCC[C@H]1c1nc2cc([C@H]3CC[C@H](c4cc5nc([C@@H]6CCCN6C(=O)[C@@H](NC(=O)OC)[C@@H](C)OC)[nH]c5cc4F)N3c3cc(F)c(N4CCC(c5ccc(F)cc5)CC4)c(F)c3)c(F)cc2[nH]1)[C@@H](C)OC [PIBRENTASVIR]
Output line: 8.3
